TESTED SYSTEM: Kallikrein-1 (Homo sapiens, UniProt P06870)
Sequence (P06870 whole entry): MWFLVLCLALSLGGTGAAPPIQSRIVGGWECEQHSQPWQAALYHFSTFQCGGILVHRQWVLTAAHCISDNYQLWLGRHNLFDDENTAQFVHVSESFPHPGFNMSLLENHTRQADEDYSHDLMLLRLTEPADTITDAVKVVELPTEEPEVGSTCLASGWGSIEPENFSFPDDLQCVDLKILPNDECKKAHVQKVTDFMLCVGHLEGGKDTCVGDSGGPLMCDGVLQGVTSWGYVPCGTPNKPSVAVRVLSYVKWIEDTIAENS
METHOD SUMMARY: Inhibition of human KLK1
Numbered stars: 1 amine (or outer) side, 2 acyl side, 3 side chain; on linkers, the order of the positions; unused ones are H or OH. Square brackets hold non-standard residues; d marks the D form. Peptide text beside a SMILES is read from it. * marks the point of attachment. EDDnp = O=[N+]([O-])c1ccc(NCCN*)c([N+](=O)[O-])c1; X1 = NCC1CCC(C[C@H](N[*:1])C(=O)[*:2])CC1; 2Abz = Nc1ccccc1C(=O)O
QUANTITY MEASURED: pKi
Notebook: values listed as pKi are -log10 of the concentration (mol/L).

I am curious: what pKi value has been reported for NC(=O)[C@H](CCCN=C(N)N)NC(=O)[C@H](CO)NC(=O)[C@H](CC1CCC(N)CC1)NC(=O)Cc1ccccc1 (mixture of isomers) ? 6.96

If you can, please state the reported pKi value of N=C(N)NCCC[C@H](NC(=O)[C@H](CO)NC(=O)[C@H](CC1CCC(CN)CC1)NC(=O)[C@H](Cc1ccccc1)NC(=O)c1ccccc1N)C(=O)N[C@@H](CCC(N)=O)C(=O)NCCNc1ccc([N+](=O)[O-])cc1[N+](=O)[O-] (some centres not stated) (H-[2Abz]F[X1]SRQ-EDDnp) . 7.30
